- MEASURED TARGET: human EP4 receptor (Homo sapiens, UniProt P35408)
- Construct: Eurofins Cerep
- Sequence (P35408 whole entry): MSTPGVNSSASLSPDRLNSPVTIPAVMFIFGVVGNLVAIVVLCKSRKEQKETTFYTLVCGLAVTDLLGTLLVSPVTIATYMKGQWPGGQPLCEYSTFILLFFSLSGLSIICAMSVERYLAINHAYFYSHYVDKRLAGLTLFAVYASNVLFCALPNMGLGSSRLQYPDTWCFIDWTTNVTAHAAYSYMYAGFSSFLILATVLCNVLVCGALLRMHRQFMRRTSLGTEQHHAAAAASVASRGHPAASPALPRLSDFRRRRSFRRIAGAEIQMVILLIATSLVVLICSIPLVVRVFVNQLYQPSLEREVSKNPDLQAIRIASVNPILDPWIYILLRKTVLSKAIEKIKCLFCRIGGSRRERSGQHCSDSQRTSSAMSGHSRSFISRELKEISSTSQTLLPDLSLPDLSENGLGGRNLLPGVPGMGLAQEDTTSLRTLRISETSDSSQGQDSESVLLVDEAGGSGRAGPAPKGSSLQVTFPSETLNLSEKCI
- EXPERIMENT DESCRIPTION: human EP4 receptor antagonist screen (Eurofins Cerep; cAMP HTRF, PGE2 30 nM stimulus, CHO cells)
- Format: cell-based
- ASSAY CONTEXT: at 100 nM, EP4(h) antagonist effect, human recombinant (CHO cells), 10 min RT, read-out: % inhibition of control reference agonist response (PGE2)
VALUE KIND: inhibition at 0.1 µM

Exam item: Using the record for Cc1ccc(S(=O)(=O)NC(=O)NCCc2ccc(-c3c(-c4ccon4)nc4c(C)nc(C)cn34)cc2)cc1 , state its measured inhibition at 0.1 µM.
Marked response: ≥ 50%

Exam item: Using the record for CCc1nc2c(C)nc(C)cn2c1-c1ccc(CCNC(=O)NS(=O)(=O)c2ccccc2C)cc1 , state its measured inhibition at 0.1 µM.
Marked response: ≥ 50%

Exam item: Using the record for CCc1nc2c(C)nc(C)cn2c1-c1ccc(CCNC(=O)NS(=O)(=O)c2ccc(Cl)cc2)cc1 , state its measured inhibition at 0.1 µM.
Marked response: ≥ 50%

Exam item: Using the record for CCc1nc2c(C)nc(-c3ccncc3)cn2c1-c1ccc(CCNC(=O)NS(=O)(=O)c2ccc(C)cc2)cc1 , state its measured inhibition at 0.1 µM.
Marked response: ≥ 50%
